Field: IC50. Provide a value for each of the molecules that follow.
System: Human polymorphonuclear (PMN) granulocytes
experimentalDetails: Inhibition of PMN superoxide secretion (ferricytochrome C reduction, TNF-α primed, fMLP stimulated)
Assay type: cell-based
measurementConditions: fMLP 10^−7 M, read-out: The median inhibition concentration (IC50, nM) of PMN-superoxide

IC50 recorded for this molecule, `CCCCCCCC(=O)Nc1ccccc1Nc1ccc(C(=O)c2ccccc2C)c(Cl)c1` , is 5 nM

GET /value?item= `Cc1ccccc1C(=O)c1ccc(Nc2ccccc2NC(=O)CCC(=O)O)cc1Cl` &field=IC50 returns 63 nM

The values you see were collected from patent US6566554B1.
